meta.source: ChEMBL document CHEMBL3425443

experiment: Cytotoxicity against human ECRF24 cells after 72 hrs by MTT assay; assay type: functional, cell-based; settings: ECRF24, 72 h
Please respond with True when measured IC50 is strictly beneath 30 µM, and with False in all other cases.

Example entries and their recorded answers appear below.
Cc1nc(Nc2ncc(C(=O)Nc3c(C)cccc3Cl)s2)cc(N2CCN(CCOC(=O)CCC(=O)OCCC(F)(F)C(F)(F)C(F)(F)C(F)(F)C(F)(F)C(F)(F)C(F)(F)C(F)(F)C(F)(F)C(F)(F)F)CC2)n1 :: True
CCCCCCCCOC(=O)CCCC(=O)OCCN1CCN(c2cc(Nc3ncc(C(=O)Nc4c(C)cccc4Cl)s3)nc(C)n2)CC1 :: True
CCCCCCCCCCCCCCCCCCOC(=O)CCC(=O)OCCN1CCN(c2cc(Nc3ncc(C(=O)Nc4c(C)cccc4Cl)s3)nc(C)n2)CC1 :: False
CCCCCCCCCCCCOC(=O)CCCC(=O)OCCN1CCN(c2cc(Nc3ncc(C(=O)Nc4c(C)cccc4Cl)s3)nc(C)n2)CC1 :: False
Cc1nc(Nc2ncc(C(=O)Nc3c(C)cccc3Cl)s2)cc(N2CCN(CCO)CC2)n1.O [DASATINIB] :: True

Query: Field: below-cutoff. Rule: recorded IC50 strictly less than 30 µM. Subject: "Cc1nc(Nc2ncc(C(=O)Nc3c(C)cccc3Cl)s2)cc(N2CCN(CCOC(=O)CCC(=O)OCCC(F)(F)C(F)(F)C(F)(F)C(F)(F)C(F)(F)C(F)(F)C(F)(F)C(F)(F)F)CC2)n1"
Response: False

Query: Field: below-cutoff. Rule: recorded IC50 strictly less than 30 µM. Subject: "CCCCCCCCCCOC(=O)CCCC(=O)OCCN1CCN(c2cc(Nc3ncc(C(=O)Nc4c(C)cccc4Cl)s3)nc(C)n2)CC1"
Response: False

Query: Field: below-cutoff. Rule: recorded IC50 strictly less than 30 µM. Subject: "Cc1nc(Nc2ncc(C(=O)Nc3c(C)cccc3Cl)s2)cc(N2CCN(CCOC(=O)CCC(=O)OCCC(F)(F)C(F)(F)C(F)(F)C(F)(F)C(F)(F)C(F)(F)F)CC2)n1"
Response: False

Query: Field: below-cutoff. Rule: recorded IC50 strictly less than 30 µM. Subject: "CCCCCCCCCCCCOC(=O)CCC(=O)OCCN1CCN(c2cc(Nc3ncc(C(=O)Nc4c(C)cccc4Cl)s3)nc(C)n2)CC1"
Response: True

Query: Field: below-cutoff. Rule: recorded IC50 strictly less than 30 µM. Subject: "CCCCCCCCOC(=O)CCC(=O)OCCN1CCN(c2cc(Nc3ncc(C(=O)Nc4c(C)cccc4Cl)s3)nc(C)n2)CC1"
Response: True

Query: Field: below-cutoff. Rule: recorded IC50 strictly less than 30 µM. Subject: "Cc1nc(Nc2ncc(C(=O)Nc3c(C)cccc3Cl)s2)cc(N2CCN(CCOC(=O)CCCC(=O)OCCC(F)(F)C(F)(F)C(F)(F)C(F)(F)C(F)(F)C(F)(F)C(F)(F)C(F)(F)C(F)(F)C(F)(F)F)CC2)n1"
Response: False

Query: Field: below-cutoff. Rule: recorded IC50 strictly less than 30 µM. Subject: "Cc1nc(Nc2ncc(C(=O)Nc3c(C)cccc3Cl)s2)cc(N2CCN(CCOC(=O)CCCC(=O)OCCC(F)(F)C(F)(F)C(F)(F)C(F)(F)C(F)(F)C(F)(F)C(F)(F)C(F)(F)F)CC2)n1"
Response: False

Query: Field: below-cutoff. Rule: recorded IC50 strictly less than 30 µM. Subject: "CCCCCCCCCCCCCCCCCCOC(=O)CCCC(=O)OCCN1CCN(c2cc(Nc3ncc(C(=O)Nc4c(C)cccc4Cl)s3)nc(C)n2)CC1"
Response: False

Query: Field: below-cutoff. Rule: recorded IC50 strictly less than 30 µM. Subject: "Cc1nc(Nc2ncc(C(=O)Nc3c(C)cccc3Cl)s2)cc(N2CCN(CCOC(=O)CCCC(=O)OCCC(F)(F)C(F)(F)C(F)(F)C(F)(F)C(F)(F)C(F)(F)F)CC2)n1"
Response: False
